- PROCEDURE TEXT: Pharmacokinetics and oral bioavailability in Wistar rats
- Assay type: in vivo
- TEST PARAMETERS: male, Wistar, plasma; rat, single oral administration 5 mg/kg
- Protocol: To prepare the standard series solution, a suitable amount of compound IA-3 was accurately weighed and placed in a 100 mL volumetric flask. The compound was dissolved in acetonitrile and diluted to the mark to produce a 25.0 μg/mL stock solution. […] Sample determination and data processing: the rat plasma samples were processed according to the “Preparation of plasma samples” procedure and analyzed under the conditions described above. […]

{"columns": ["COMPOUND STRING", "MRT / h"],
 "data": [
  ["O=C(NCc1cccnc1)c1csc(-c2cnn3cccnc23)n1", 1.27]
]}

###

This section presents compounds with their documented Inhibition rate (%) values.
- Test system: lymphocytes (fresh spleen cells)
- PROCEDURE TEXT: Lymphocyte proliferation assay (ConA-induced spleen cells)
- Type: cell-based, rat
- TEST PARAMETERS: lymphocyte proliferation induced with 5 μg/mL ConA, 48 hours; test concentration not given
OUTCOME MEASURE: Inhibition rate (%)

{"columns": ["COMPOUND", "DATA VALUE"],
 "data": [
  ["O=C(c1nc(C(=O)N2CCCCC2C(=O)O)cs1)c1c[nH]c2ccccc12 (stereo not drawn) [IIA-22]", 53.75],
  ["O=C(NCc1cccnc1)c1csc(NC(=O)c2cnn3cccnc23)n1 [IA-2]", 65.17],
  ["O=C(NCCCN1CCCC1)c1csc(C(=O)c2c[nH]c3ccccc23)n1 [IIA-15]", 28.53],
  ["O=C(NCc1cncnc1)c1csc(-c2cnn3cccnc23)n1 [IA-22]", 32.73],
  ["O=C(c1csc(-c2cnn3cccnc23)n1)N1CCC[C@H]1c1ccncc1 [IA-13]", 59.01],
  ["CC(C)=CCC/C(C)=C/COC(=O)c1csc(-c2cnn3cccnc23)n1 [IA-7]", 52.55],
  ["CC1CCC2(OC1)OC1CC3C4CC=C5CC(OC(=O)c6csc(C(=O)c7c[nH]c8ccccc78)n6)CCC5(C)C4CCC3(C)C1C2C (stereo not drawn) [IIA-7]", 38.74],
  ["Nc1ccccc1C(=O)CC(N)C(=O)O (stereo not drawn) [KYN, kynurenine, reference compound]", 51.65],
  ["O=C(NC(CO)C(=O)O)c1csc(C(=O)c2c[nH]c3ccccc23)n1 (stereo not drawn) [IIA-24]", 59.91],
  ["COC(=O)[C@@H]1C[C@@H](O)CN1C(=O)c1csc(-c2cnn3cccnc23)n1 [IA-15]", 30.78],
  ["COC(=O)C(CO)NC(=O)c1csc(C(=O)c2c[nH]c3ccccc23)n1 (stereo not drawn) [IIA-13]", 43.99],
  ["COC(=O)C1CCCCN1C(=O)c1csc(-c2cnn3cccnc23)n1 (stereo not drawn) [IA-16]", 28.83],
  ["COC(=O)[C@@H]1C[C@@H](O)CN1C(=O)c1csc(C(=O)c2c[nH]c3ccccc23)n1 [IIA-26]", 45.05],
  ["O=C(c1csc(-c2cnn3cccnc23)n1)N1CCN(c2cccnc2)CC1 [IA-23]", 60.57],
  ["O=C(NCc1ccc(Cl)cc1Cl)c1csc(-c2cnn3cccnc23)n1 [IA-8]", 43.39],
  ["CC(C)CCCC(C)C1CCC2C3CC=C4CC(OC(=O)c5csc(C(=O)c6c[nH]c7ccccc67)n5)CCC4(C)C3CCC12C (stereo not drawn) [IIA-8]", 50.45],
  ["Cc1c(COC(=O)c2csc(C(=O)c3c[nH]c4ccccc34)n2)cccc1-c1ccccc1 [IIA-11]", 25.08],
  ["O=C(NCC(F)(F)F)c1csc(C(=O)c2c[nH]c3ccccc23)n1 [IIA-27]", 51.8]
]}
